system: T1, SOCS-3 (recombinant, His-tagged) (mouse, UniProt O35718)
T1 chain: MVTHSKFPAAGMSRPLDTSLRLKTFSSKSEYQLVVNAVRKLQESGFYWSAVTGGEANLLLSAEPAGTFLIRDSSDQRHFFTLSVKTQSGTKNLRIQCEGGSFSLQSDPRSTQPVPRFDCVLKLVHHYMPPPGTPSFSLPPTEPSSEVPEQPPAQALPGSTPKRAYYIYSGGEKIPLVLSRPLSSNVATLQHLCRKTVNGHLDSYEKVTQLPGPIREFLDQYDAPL
experimentalDetails: competition, SPR
Square brackets hold non-standard residues; d marks the D form. Ends that are not written are not given here. pY = N[C@@H](Cc1ccc(OP(=O)(O)O)cc1)C(=O)O
For each record, write down the corresponding IC50.
Give bare numbers, in nM.

Solved cases below.
{"binder": "STASTVE[pY]STVVASG-NH2 (N-terminus assumed; SMILES CC(C)[C@H](NC(=O)[C@@H](NC(=O)[C@@H](NC(=O)[C@H](CO)NC(=O)[C@H](Cc1ccc(OP(=O)(O)O)cc1)NC(=O)[C@H](CCC(=O)O)NC(=O)[C@@H](NC(=O)[C@@H](NC(=O)[C@H](CO)NC(=O)[C@H](C)NC(=O)[C@@H](NC(=O)[C@@H](N)CO)[C@@H](C)O)[C@@H](C)O)C(C)C)[C@@H](C)O)C(C)C)C(=O)N[C@@H](C)C(=O)N[C@@H](CO)C(=O)NCC(N)=O) [gp130 phosphopeptide H13A]", "valueUnit": "nM", "IC50": 770}
{"binder": "STASTVE[pY]ATVVHSG-NH2 (N-terminus assumed; SMILES CC(C)[C@H](NC(=O)[C@@H](NC(=O)[C@@H](NC(=O)[C@H](C)NC(=O)[C@H](Cc1ccc(OP(=O)(O)O)cc1)NC(=O)[C@H](CCC(=O)O)NC(=O)[C@@H](NC(=O)[C@@H](NC(=O)[C@H](CO)NC(=O)[C@H](C)NC(=O)[C@@H](NC(=O)[C@@H](N)CO)[C@@H](C)O)[C@@H](C)O)C(C)C)[C@@H](C)O)C(C)C)C(=O)N[C@@H](Cc1c[nH]cn1)C(=O)N[C@@H](CO)C(=O)NCC(N)=O) [gp130 phosphopeptide S9A]", "valueUnit": "nM", "IC50": 72}
{"binder": "Ac-[pY]STVVHSG-NH2 (SMILES CC(=O)N[C@@H](Cc1ccc(OP(=O)(O)O)cc1)C(=O)N[C@@H](CO)C(=O)N[C@H](C(=O)N[C@H](C(=O)N[C@H](C(=O)N[C@@H](Cc1c[nH]cn1)C(=O)N[C@@H](CO)C(=O)NCC(N)=O)C(C)C)C(C)C)[C@@H](C)O) [Ac(pY)STVVHSG]", "valueUnit": "nM", "IC50": 9600}

Task: So what's the measured IC50 for this one? STASTVE[pY]STVVHS-NH2 (N-terminus assumed; SMILES CC(C)[C@H](NC(=O)[C@@H](NC(=O)[C@@H](NC(=O)[C@H](CO)NC(=O)[C@H](Cc1ccc(OP(=O)(O)O)cc1)NC(=O)[C@H](CCC(=O)O)NC(=O)[C@@H](NC(=O)[C@@H](NC(=O)[C@H](CO)NC(=O)[C@H](C)NC(=O)[C@@H](NC(=O)[C@@H](N)CO)[C@@H](C)O)[C@@H](C)O)C(C)C)[C@@H](C)O)C(C)C)C(=O)N[C@@H](Cc1c[nH]cn1)C(=O)N[C@@H](CO)C(N)=O) [STASTVE(pY)STVVHS]
Output: 61
